Test system: Staphylococcus aureus
Assay Details: Bactericidal activity against erythromycin-susceptible Staphylococcus aureus ATCC 25923 assessed as inhibition of bacterial growth measured after 20 hrs by two-fold microdilution assay
Assay type: functional
Measure: MBC (µg/mL)
The figure you give is taken to be in µg/mL; do not add the unit.

The recorded MBC for Cc1ccc2c[n+](C)c3ccc(-c4ccc5ccn(Cc6ccc(C(F)(F)F)cc6)c5c4)cc3c2c1.[Cl-] is 4

For reference, reported MBC for Cc1ccc2c[n+](C)c3ccc(-c4ccc5ccn(Cc6ccccc6)c5c4)cc3c2c1.[Cl-] stands at 32

Entry CCCCn1ccc2ccc(-c3ccc4c(c3)c3c(C)cccc3c[n+]4C)cc21.[Cl-] , MBC reported as 16

What the record says about Cc1cccc2c[n+](C)c3ccc(-c4ccc5ccn(Cc6ccccc6)c5c4)cc3c12.[Cl-] : MBC is 32

Reported MBC of Cc1ccc2c[n+](C)c3ccc(-c4ccc5ccn(Cc6ccc(OC(F)(F)F)cc6)c5c4)cc3c2c1.[Cl-] : 4

MBC reading for CC(=O)NC[C@H]1CN(c2ccc(N3CCOCC3)c(F)c2)C(=O)O1 : 128

// recorded MBC for C[n+]1cc2c3c(ccc2c2ccc4cc5c(cc4c21)OCO5)OCO3 : 128

Data provenance is ChEMBL document CHEMBL4828726.
